Entries and their MIC 90 at 48 hours values follow.
Test system: C. krusei
Assay type: cell-based, Candida krusei
Non-standard residues stand in square brackets, D forms with d. Residues, ends and D or L forms follow the SMILES beside them. d2Nal = N[C@H](Cc1ccc2ccccc2c1)C(=O)O; Tle = CC(C)(C)[C@H](N)C(=O)O; Ac5c = NC1(C(=O)O)CCCC1; Ac4c = NC1(C(=O)O)CCC1; Aib = CC(C)(N)C(=O)O

[
  {
    "molecule": "CC(C)[C@H](NC(=O)[C@H](Cc1ccccc1)NC(=O)[C@H](CCCCN)NC(=O)C1(NC(=O)[C@H](Cc2c[nH]c3ccccc23)NC(=O)[C@H](CCCNC(=N)N)NC(=O)[C@@H](Cc2ccc3ccccc3c2)NC(=O)[C@@H](N)Cc2c[nH]cn2)CCC1)C(N)=O [MSH0709] (H-H[d2Nal]RW[Ac4c]KFV-NH2)",
    "scaleUnit": "µg/mL",
    "MIC 90 at 48 hours": 117
  },
  {
    "molecule": "CC(C)[C@H](NC(=O)[C@H](Cc1ccccc1)NC(=O)[C@H](CCCCN)NC(=O)[C@@H](NC(=O)[C@H](Cc1c[nH]c2ccccc12)NC(=O)[C@H](CCCNC(=N)N)NC(=O)[C@@H](Cc1ccc2ccccc2c1)NC(=O)[C@@H](N)Cc1c[nH]cn1)C(C)(C)C)C(N)=O [MSH0707] (H-H[d2Nal]RW[Tle]KFV-NH2)",
    "scaleUnit": "µg/mL",
    "MIC 90 at 48 hours": 118
  },
  {
    "molecule": "CC(C)[C@H](NC(=O)[C@H](Cc1ccccc1)NC(=O)[C@H](CCCCN)NC(=O)[C@H](Cc1ccccc1)NC(=O)[C@H](Cc1c[nH]c2ccccc12)NC(=O)[C@H](CCCNC(=N)N)NC(=O)[C@@H](Cc1ccc2ccccc2c1)NC(=O)[C@@H](N)Cc1c[nH]cn1)C(N)=O [MSH0713] (H-H[d2Nal]RWFKFV-NH2)",
    "scaleUnit": "µg/mL",
    "MIC 90 at 48 hours": 122
  },
  {
    "molecule": "CC(C)[C@H](NC(=O)[C@H](Cc1ccccc1)NC(=O)[C@H](CCCCN)NC(=O)C(C)(C)NC(=O)[C@H](Cc1c[nH]c2ccccc12)NC(=O)[C@H](CCCNC(=N)N)NC(=O)[C@@H](Cc1ccc2ccccc2c1)NC(=O)[C@@H](N)Cc1c[nH]cn1)C(N)=O [MSH0702] (H-H[d2Nal]RW[Aib]KFV-NH2)",
    "scaleUnit": "µg/mL",
    "MIC 90 at 48 hours": 115
  },
  {
    "molecule": "CC(C)[C@H](NC(=O)[C@H](Cc1ccccc1)NC(=O)[C@H](CCCCN)NC(=O)C1(NC(=O)[C@H](Cc2c[nH]c3ccccc23)NC(=O)[C@H](CCCNC(=N)N)NC(=O)[C@@H](Cc2ccc3ccccc3c2)NC(=O)[C@@H](N)Cc2c[nH]cn2)CCCC1)C(N)=O [MSH0705] (H-H[d2Nal]RW[Ac5c]KFV-NH2)",
    "scaleUnit": "µg/mL",
    "MIC 90 at 48 hours": 117
  }
]

###

Tested on: C. albicans
Assay type: cell-based, Candida albicans
Non-standard residues stand in square brackets, D forms with d. Residues, ends and D or L forms follow the SMILES beside them. d2Nal = N[C@H](Cc1ccc2ccccc2c1)C(=O)O; Tle = CC(C)(C)[C@H](N)C(=O)O; Ac6c = NC1(C(=O)O)CCCCC1; Ac4c = NC1(C(=O)O)CCC1; Aib = CC(C)(N)C(=O)O
Entries and their MIC 90 at 48 hours values follow.

[
  {
    "compound": "CC(C)[C@H](NC(=O)[C@H](Cc1ccccc1)NC(=O)[C@H](CCCCN)NC(=O)C1(NC(=O)[C@H](Cc2c[nH]c3ccccc23)NC(=O)[C@H](CCCNC(=N)N)NC(=O)[C@@H](Cc2ccc3ccccc3c2)NC(=O)[C@@H](N)Cc2c[nH]cn2)CCCCC1)C(N)=O [MSH0712] (H-H[d2Nal]RW[Ac6c]KFV-NH2)",
    "tgt": "C. albicans",
    "MIC 90 at 48 hours": "60 µg/mL"
  },
  {
    "compound": "CC(C)[C@H](NC(=O)[C@H](Cc1ccccc1)NC(=O)[C@H](CCCCN)NC(=O)C(C)(C)NC(=O)[C@H](Cc1c[nH]c2ccccc12)NC(=O)[C@H](CCCNC(=N)N)NC(=O)[C@@H](Cc1ccc2ccccc2c1)NC(=O)[C@@H](N)Cc1c[nH]cn1)C(N)=O [MSH0702] (H-H[d2Nal]RW[Aib]KFV-NH2)",
    "tgt": "C. albicans",
    "MIC 90 at 48 hours": "115 µg/mL"
  },
  {
    "compound": "CC(C)[C@H](NC(=O)[C@H](Cc1ccccc1)NC(=O)[C@H](CCCCN)NC(=O)[C@@H](NC(=O)[C@H](Cc1c[nH]c2ccccc12)NC(=O)[C@H](CCCNC(=N)N)NC(=O)[C@@H](Cc1ccc2ccccc2c1)NC(=O)[C@@H](N)Cc1c[nH]cn1)C(C)(C)C)C(N)=O [MSH0707] (H-H[d2Nal]RW[Tle]KFV-NH2)",
    "tgt": "C. albicans",
    "MIC 90 at 48 hours": "118 µg/mL"
  },
  {
    "compound": "CC(C)[C@H](NC(=O)[C@H](Cc1ccccc1)NC(=O)[C@H](CCCCN)NC(=O)C1(NC(=O)[C@H](Cc2c[nH]c3ccccc23)NC(=O)[C@H](CCCNC(=N)N)NC(=O)[C@@H](Cc2ccc3ccccc3c2)NC(=O)[C@@H](N)Cc2c[nH]cn2)CCC1)C(N)=O [MSH0709] (H-H[d2Nal]RW[Ac4c]KFV-NH2)",
    "tgt": "C. albicans",
    "MIC 90 at 48 hours": "117 µg/mL"
  }
]
